Origin of values: patent EP0714912B1

# System: immobilized GMP-140
# Assay: ELISA (avidin detection) of binding of biotinylated monoclonal antibodies G1, G2, G3 to immobilized GMP-140 in presence of soluble peptide
# Parameters: species or system human
# Condition Context: peptide 1.5 mM added to biotinylated mAb G3 (2.5 micrograms/ml) before addition to immobilized GMP-140
Catalogue of substances with associated % Binding of Biotinylated MAbs G3
Respond numerically; units are % and should not be typed.

Answered cases to consult:
substance="EGF 145-158: synthetic peptide, amino acids 145-158 of the EGF domain of GMP-140 (YPGFYGPECEYVRE; UniProt P16109 186-199, looked up, fragment)" property_name="% Binding of Biotinylated MAbs G3" unit_spec=% measured_value=108
substance="LECTIN/EGF 118-126: synthetic peptide, amino acids 118-126 of GMP-140 (lectin/EGF domains) (YTASCQDMS; UniProt P16109 159-167, looked up, fragment)" property_name="% Binding of Biotinylated MAbs G3" unit_spec=% measured_value=104
substance="LECTIN 73-89: synthetic peptide, amino acids 73-89 of the lectin domain of GMP-140 (AENWADNEPNNKRNNED; UniProt P16109 114-130, looked up, fragment)" property_name="% Binding of Biotinylated MAbs G3" unit_spec=% measured_value=94

For the next question, use this substance.
Enquiry: // query % Binding of Biotinylated MAbs G3 value for entry EGF 134-141: synthetic peptide, amino acids 134-141 of the EGF domain of GMP-140 (LETIGNYT; UniProt P16109 175-182, looked up, fragment)
Return: 109

---

Catalogue of substances with associated % Binding of Biotinylated MAbs G3
# System: immobilized GMP-140
# Assay: ELISA (avidin detection) of binding of biotinylated monoclonal antibodies G1, G2, G3 to immobilized GMP-140 in presence of soluble peptide
# Set-up: species or system human
# Condition Context: peptide 1.5 mM added to biotinylated mAb G3 (2.5 micrograms/ml) before addition to immobilized GMP-140
Respond numerically; units are % and should not be typed.

substance="LECTIN 91-108: synthetic peptide, amino acids 91-108 of the lectin domain of GMP-140 (VEIYIKSPSAPGKWNDEH; UniProt P16109 132-149, looked up, fragment)" measured_value=96
substance="LECTIN 19-30: synthetic peptide, amino acids 19-30 of the lectin domain of GMP-140 (CQNRYTDLVAIQ; UniProt P16109 60-71, looked up, fragment)" measured_value=54

For the next question, use this substance.
Enquiry: // query % Binding of Biotinylated MAbs G3 value for entry TRANSMEMBRANE 755-761: control peptide from the transmembrane region of GMP-140, amino acids 755-761 (RKRFRQK; UniProt P16109 796-802, looked up, fragment)
Return: 104

---

# System: immobilized GMP-140
# Assay: ELISA (avidin detection) of binding of biotinylated monoclonal antibodies G1, G2, G3 to immobilized GMP-140 in presence of soluble peptide
# Parameters: species or system human
# Condition Context: peptide 1.5 mM added to biotinylated mAb G1 (2.5 micrograms/ml) before addition to immobilized GMP-140
Property Name: % Binding of Biotinylated MAbs G1 (%)
Respond numerically; units are % and should not be typed.

substance="REPEATS 544-556: control peptide from one of the consensus repeats of GMP-140, amino acids 544-556" property_name="% Binding of Biotinylated MAbs G1" measured_value=107
substance="EGF 145-158: synthetic peptide, amino acids 145-158 of the EGF domain of GMP-140 (YPGFYGPECEYVRE; UniProt P16109 186-199, looked up, fragment)" property_name="% Binding of Biotinylated MAbs G1" measured_value=94
substance="LECTIN 91-108: synthetic peptide, amino acids 91-108 of the lectin domain of GMP-140 (VEIYIKSPSAPGKWNDEH; UniProt P16109 132-149, looked up, fragment)" property_name="% Binding of Biotinylated MAbs G1" measured_value=97
substance="LECTIN 54-72: synthetic peptide, amino acids 54-72 of the lectin domain of GMP-140 (RKNNKTWTWVGTKKALTNE; UniProt P16109 95-113, looked up, fragment)" property_name="% Binding of Biotinylated MAbs G1" measured_value=106
substance="TRANSMEMBRANE 755-761: control peptide from the transmembrane region of GMP-140, amino acids 755-761 (RKRFRQK; UniProt P16109 796-802, looked up, fragment)" property_name="% Binding of Biotinylated MAbs G1" measured_value=100
substance="LECTIN/EGF 118-126: synthetic peptide, amino acids 118-126 of GMP-140 (lectin/EGF domains) (YTASCQDMS; UniProt P16109 159-167, looked up, fragment)" property_name="% Binding of Biotinylated MAbs G1" measured_value=92

Enquiry: // query % Binding of Biotinylated MAbs G1 value for entry LECTIN 110-116: synthetic peptide, amino acids 110-116 of the lectin domain of GMP-140 (LKKKHAL; UniProt P16109 151-157, looked up, fragment)
Return: 98

---

# Tested on: immobilized GMP-140
# Assay: ELISA (avidin detection) of binding of biotinylated monoclonal antibodies G1, G2, G3 to immobilized GMP-140 in presence of soluble peptide
# Set-up: species or system human
# Condition Context: peptide 1.5 mM added to biotinylated mAb G2 (2.5 micrograms/ml) before addition to immobilized GMP-140
Property Name: % Binding of Biotinylated MAbs G2 (%)
Respond numerically; units are % and should not be typed.

Answered cases to consult:
substance="C-TERMINUS 761-777: C-terminal peptide (amino acid residues 761-777 of GMP-140) as a negative control (KDDGKCPLNPHSHLGTY; UniProt P16109 802-818, looked up, fragment) [reference compound]" property_name="% Binding of Biotinylated MAbs G2" unit_spec=% measured_value=100
substance="EGF 145-158: synthetic peptide, amino acids 145-158 of the EGF domain of GMP-140 (YPGFYGPECEYVRE; UniProt P16109 186-199, looked up, fragment)" property_name="% Binding of Biotinylated MAbs G2" unit_spec=% measured_value=92
substance="LECTIN 110-116: synthetic peptide, amino acids 110-116 of the lectin domain of GMP-140 (LKKKHAL; UniProt P16109 151-157, looked up, fragment)" property_name="% Binding of Biotinylated MAbs G2" unit_spec=% measured_value=100

Enquiry: // query % Binding of Biotinylated MAbs G2 value for entry EGF 134-141: synthetic peptide, amino acids 134-141 of the EGF domain of GMP-140 (LETIGNYT; UniProt P16109 175-182, looked up, fragment)
Return: 104
